- protocolSummary: Pharmacokinetic study of standard-dose acute gout regimen 4.8 mg over 6 hours (Example 6)
- experimentalConditions: human, in vivo, 4.8 mg, t1/2, MEAN, standard-dose regimen 4.8 mg over 6 hours, healthy adults, N = 15
propertyLabel: half-life (h)
Numbers only, in h.

Record summary for COc1cc2c(c(OC)c1OC)-c1ccc(OC)c(=O)cc1[C@@H](NC(C)=O)CC2 : reported half-life = 31.4
